System: M. luteus ATCC9341
Assay: agar plate dilution method, MIC against M. luteus ATCC9341
Type: cell-based
Details: Micrococcus luteus, ATCC9341, 16 h, read-out: Minimum Inhibitory Concentration (MIC)

>  <Molecule>
CC(C)(O/N=C(\C(=O)N[C@@H]1C(=O)N2C(C(=O)[O-])=C(C[n+]3ccccc3)CS[C@H]12)c1csc(N)n1)C(=O)O [Ceftazidime, ceftazidime, reference compound]

>  <MIC>
0.78 µg/mL

$$$$
>  <Molecule>
CC(=O)Oc1ccc(C(O/N=C(\C(=O)NC2C(=O)N3C(C(=O)[O-])=C(CSc4cc[n+](CC(=O)O)cc4)CSC23)c2csc(N)n2)C(=O)O)cc1OC(C)=O (centres unmarked) [Example 6]

>  <MIC>
3.12 µg/mL

$$$$
>  <Molecule>
Nc1nc(/C(=N/OC(C(=O)O)c2ccccc2)C(=O)NC2C(=O)N3C(C(=O)[O-])=C(CSc4cc[n+](CC(=O)O)cc4)CSC23)cs1 (centres unmarked) [Example 3]

>  <MIC>
3.12 µg/mL

$$$$
>  <Molecule>
Nc1nc(/C(=N/OCc2ccccc2)C(=O)NC2C(=O)N3C(C(=O)[O-])=C(CSc4cc[n+](CC(=O)O)cc4)CSC23)cs1 (centres unmarked) [Example 2]

>  <MIC>
0.025 µg/mL

$$$$
>  <Molecule>
C=C(O/N=C(\C(=O)NC1C(=O)N2C(C(=O)[O-])=C(CSc3cc[n+](CC(=O)O)cc3)CSC12)c1csc(N)n1)C(=O)O (centres unmarked) [Example 1]

>  <MIC>
1.56 µg/mL

$$$$
